- Tested on: HT29 colon
- testProtocol: NCI tumour cell line growth inhibition, 48 h
// TGI lookup, one value per entry

CCCCCOC(=O)c1c(C)[nH]c(/C=C2\N=C(c3ccc[nH]3)C=C2OC)c1C 1.34 µM
CN(C)c1ccc(-c2c(C#N)c(-c3ccccc3)n(NS(=O)(=O)c3ccccc3)c(=O)c2C#N)cc1 > 100 µM
CC1=NN(c2ccccc2)C(=O)/C1=C1\SC(c2ccccc2)(c2ccccc2)c2ccccc21 > 100 µM
CC(=O)Nc1ccc(CC[C@H]2CCC/C=C/[C@@H]3C[C@H](O)C[C@H]3[C@H](O)/C=C/C(=O)O2)cc1 0.951 µM

Supply measured TGI of `COc1cc(OC)c(-n2[nH]c(=O)n(C)c2=O)c(OC)c1` in your reply. > 100 µM

Please give measured TGI of the following entry: `O=c1oc2ccccc2cc1P(=O)(O)O` > 100 µM

Tell me its TGI given `CSC(=Nc1ccc([N+](=O)[O-])cc1C#N)NC(=O)c1ccccc1` as the entry. > 100 µM

# return recorded TGI for input `COc1nc2ncc([C@@H](OC(C)=O)[C@@H](COC(C)=O)OC(C)=O)nc2c(=O)n1C` > 100 µM

* * *

- Test system: PC-3 prostate
- testProtocol: NCI tumour cell line growth inhibition, 48 h
*1 amine or outer side, *2 acyl side, *3 side chain or, on linkers, in order; H or OH if unused. Where a SMILES comes first, the peptide text is derived from it. [ ]: non-standard residue; d: D form. The star is where a group is joined. ξ: configuration not given here. Pentanoyl(2-O,4-OH,5-Cl) = O=C(O)C(O)CC(O)CCl; γGlu = O=C(O)[CH](CCC(=O)[*:2])N[*:1]; Ile(3ξ) = CCC(C)[C@H](N)C(=O)O; NMeV = CN[C@H](C(=O)O)C(C)C; NMeA = CN[C@@H](C)C(=O)O; βAla = NCCC(=O)O; NHOH = ON*
metricName: TGI

compound	metricName	result
CCOC(=O)c1sc2nc(=S)[nH]c(NC(N)=S)c2c1C	TGI	94.6 µM
OC(c1ccccc1)c1c(-c2ccccc2)[nH]c(-c2ccccc2)c1C(O)c1ccccc1 (stereo not given)	TGI	21.1 µM
COc1ccc(-c2cc(=O)c3c(C)ccnc3[nH]2)cc1	TGI	> 100 µM

Please give measured TGI of the following entry: CCC(C)[C@@H]1NC(=O)[C@@H]2CCCN2C(=O)C(CC(O)CCl)OC(=O)CCNC(=O)[C@H](C)N(C)C(=O)[C@H](C(C)C)N(C)C1=O (stereo not given in full) (cyclo([Ile(3ξ)][NMeV][NMeA][βAla][Pentanoyl(2-O,4-OH,5-Cl)]P)) > 100 µM

Consider the compound `Nc1nc(N)c2cc(S(=O)(=O)c3cccc(C(F)(F)F)c3)ccc2n1` . State its measured TGI. > 100 µM

State its TGI: `CCCN1CCC(Oc2cc(Nc3nc(Nc4cccc(F)c4C(N)=O)c4cc[nH]c4n3)c(OC)cc2Cl)CC1` 6.73 µM

Read off the recorded TGI for NC(CCC(=O)NC(CCC(=O)NO)C(=O)NCC(=O)O)C(=O)O (stereo not given) (γGlu-Glu(NHOH)-Gly-OH; configuration not given here) > 100 µM

Assign TGI to the following record: `C[C@]12CC[C@H]3[C@@H](CCC4=CC(=O)CC[C@@]43C)[C@]1(O)CC[C@]2(O)C(=O)CO` > 100 µM

# return recorded TGI for entry `CCCCOc1ccc(/C=C/C2=[N+](CCO)CCO2)cc1` > 100 µM

For `O=C(c1ccccc1)c1nc2ccc(Cl)cc2cc1C(Br)Br` , write its TGI. 0.744 µM

Determine from records and report TGI for `O=C(O)c1c2c(c(O)c3c1CN(C1CCCCC1)CO3)OCN(C1CCCCC1)C2` > 100 µM

Look up and state reported TGI for CC1(N2CCOCC2)CC2C(=[N+]1[O-])CCC/C2=N/O (stereo not given) > 100 µM

Please look at this compound and report its TGI: `COCCn1c(Nc2ccc(C(=O)NO)cc2)nc2ccccc21` > 100 µM

Determine its reported TGI: `COc1cc(O)c2c(=O)c3cccc(C)c3[nH]c2c1` > 10 µM

Consider the compound `Cc1cc2c(cc1Cl)SC(=Nc1ccc(Cl)cc1)N(S(=O)(=O)c1ccc(Br)s1)S2(=O)=O` and give its recorded TGI. 27.1 µM

Cited source for all entries: PubChem BioAssay (NCI)
